- Test system: α-glucosidase
- method-notes: α-glucosidase enzyme inhibition assay (starch substrate, anthrone reagent, 640 nm)
- Type: biochemical
- applied-conditions: 1000 µg/mL, Table 6 (MZn series)
As shown below, each of these molecules has a reported % Inhibition value.
Please format your answer as a value with the unit trailing.

Consider the worked cases shown below.
- molecule: "CC(=NC(=N)NC(=N)N(C)C)c1ccccc1.CC(=NC(=N)NC(=N)N(C)C)c1ccccc1.O.O.O.O.O.O=S(=O)([O-])[O-].[Zn+2] [MZn6]"
  result: "44.51 ± 0.19%"
- molecule: "CN(C)C(=N)NC(=N)N=Cc1ccccc1.CN(C)C(=N)NC(=N)N=Cc1ccccc1.O.O.O.O.O.O=S(=O)([O-])[O-].[Zn+2] [MZn1]"
  result: "77.57 ± 0.20%"
- molecule: "CN(C)C(=N)NC(=N)N=C(c1ccccc1)c1ccccc1.CN(C)C(=N)NC(=N)N=C(c1ccccc1)c1ccccc1.O.O.O.O.O.O=S(=O)([O-])[O-].[Zn+2] [MZn7]"
  result: "42.54 ± 0.26%"
- molecule: "CN(C)C(=N)NC(=N)N=Cc1ccccc1O.CN(C)C(=N)NC(=N)N=Cc1ccccc1O.O.O.O.O.O.O=S(=O)([O-])[O-].[Zn+2] [MZn2]"
  result: "71.37 ± 0.30%"
- molecule: "CN(C)C(=N)NC(=N)N=C(c1ccccc1)C(O)c1ccccc1.CN(C)C(=N)NC(=N)N=C(c1ccccc1)C(O)c1ccccc1.O.O.O.O.O.O=S(=O)([O-])[O-].[Zn+2] (stereo not shown) [MZn9]"
  result: "45.37 ± 0.20%"

Form: molecule = CC(C)=NC(=N)NC(=N)N(C)C.CC(C)=NC(=N)NC(=N)N(C)C.O.O.O.O.O.O=S(=O)([O-])[O-].[Zn+2] [MZn5] ; % Inhibition = 49.46 ± 0.20%

Form: molecule = C=NC(=N)NC(=N)N(C)C.C=NC(=N)NC(=N)N(C)C.O.O.O.O.O.O=S(=O)([O-])[O-].[Zn+2] [MZn4] ; % Inhibition = 14.71 ± 0.26%

Form: molecule = COc1cc(C=NC(=N)NC(=N)N(C)C)ccc1O.COc1cc(C=NC(=N)NC(=N)N(C)C)ccc1O.O.O.O.O.O.O=S(=O)([O-])[O-].[Zn+2] [MZn8] ; % Inhibition = 81.54 ± 0.26%

Form: molecule = C[C@H]1O[C@H](O[C@H]2[C@H](O)[C@@H](O)[C@@H](O[C@H]3[C@H](O)[C@@H](O)C(O)O[C@@H]3CO)O[C@@H]2CO)[C@H](O)[C@@H](O)[C@@H]1N[C@H]1C=C(CO)[C@@H](O)[C@H](O)[C@H]1O (stereo partly shown) [Acarbose, reference compound] ; % Inhibition = 98.60 ± 0.10%

Form: molecule = CN(C)C(=N)NC(=N)N=CC=Cc1ccccc1.CN(C)C(=N)NC(=N)N=CC=Cc1ccccc1.O.O.O.O.O.O=S(=O)([O-])[O-].[Zn+2] [MZn3] ; % Inhibition = 68.63 ± 0.20%

###

- Tested on: α-amylase
- method-notes: α-amylase enzyme inhibition assay (starch, dinitro-salicylic acid, 540 nm)
- Type: biochemical
- applied-conditions: 250 µg/mL, Table 9 (MZn series)
observation-type: % Inhibition (%)
Quick note: give the figure in %, leave out the unit.

Consider the worked cases shown below.
- molecule: "CN(C)C(=N)NC(=N)N=C(c1ccccc1)C(O)c1ccccc1.CN(C)C(=N)NC(=N)N=C(c1ccccc1)C(O)c1ccccc1.O.O.O.O.O.O=S(=O)([O-])[O-].[Zn+2] (stereo not shown)"
  unit-tag: "%"
  % Inhibition: 15.64
- molecule: "COc1cc(C=NC(=N)NC(=N)N(C)C)ccc1O.COc1cc(C=NC(=N)NC(=N)N(C)C)ccc1O.O.O.O.O.O.O=S(=O)([O-])[O-].[Zn+2]"
  unit-tag: "%"
  % Inhibition: 37.46
- molecule: "CN(C)C(=N)NC(=N)N=C(c1ccccc1)c1ccccc1.CN(C)C(=N)NC(=N)N=C(c1ccccc1)c1ccccc1.O.O.O.O.O.O=S(=O)([O-])[O-].[Zn+2]"
  unit-tag: "%"
  % Inhibition: 24.32
- molecule: "C[C@H]1O[C@H](O[C@H]2[C@H](O)[C@@H](O)[C@@H](O[C@H]3[C@H](O)[C@@H](O)C(O)O[C@@H]3CO)O[C@@H]2CO)[C@H](O)[C@@H](O)[C@@H]1N[C@H]1C=C(CO)[C@@H](O)[C@H](O)[C@H]1O (stereo partly shown) [Acarbose, reference compound]"
  unit-tag: "%"
  % Inhibition: 49.59
- molecule: "CC(C)=NC(=N)NC(=N)N(C)C.CC(C)=NC(=N)NC(=N)N(C)C.O.O.O.O.O.O=S(=O)([O-])[O-].[Zn+2]"
  unit-tag: "%"
  % Inhibition: 15.44

Form: molecule = C=NC(=N)NC(=N)N(C)C.C=NC(=N)NC(=N)N(C)C.O.O.O.O.O.O=S(=O)([O-])[O-].[Zn+2] ; % Inhibition = 15.55

Form: molecule = CC(=NC(=N)NC(=N)N(C)C)c1ccccc1.CC(=NC(=N)NC(=N)N(C)C)c1ccccc1.O.O.O.O.O.O=S(=O)([O-])[O-].[Zn+2] ; % Inhibition = 18.76

Form: molecule = CN(C)C(=N)NC(=N)N=Cc1ccccc1O.CN(C)C(=N)NC(=N)N=Cc1ccccc1O.O.O.O.O.O.O=S(=O)([O-])[O-].[Zn+2] ; % Inhibition = 34.46

Form: molecule = CN(C)C(=N)NC(=N)N=CC=Cc1ccccc1.CN(C)C(=N)NC(=N)N=CC=Cc1ccccc1.O.O.O.O.O.O=S(=O)([O-])[O-].[Zn+2] ; % Inhibition = 13.59

Form: molecule = CN(C)C(=N)NC(=N)N=Cc1ccccc1.CN(C)C(=N)NC(=N)N=Cc1ccccc1.O.O.O.O.O.O=S(=O)([O-])[O-].[Zn+2] ; % Inhibition = 31.46

# credit: paper PMC9919699
